Assay: Phase 1 open-label drug interaction study: effect of ketoconazole on the pharmacokinetics of NBI-98854 in healthy subjects
Assay type: in vivo, human
Conditions: both sexes, human, plasma, oral, analyte NBI-136110 in plasma; NBI-98854 (50 mg) + Ketoconazole (200 mg), N = 24; read-out: AUC0-24 Mean (SD)
Recorded Metric: AUC(0-t) (ng·h/mL)

{"Compound": "COc1cc2c(cc1OC)[C@H]1C[C@@H](OC(=O)[C@@H](N)C(C)(C)O)[C@H](CC(C)C)CN1CC2 [NBI-136110]", "Measured": 161}

* * *

Assay: Phase 1 open-label drug interaction study: effect of ketoconazole on the pharmacokinetics of NBI-98854 in healthy subjects
Assay type: in vivo, human
Details: both sexes, human, oral; analyte NBI-98854 in plasma; NBI-98854 (50 mg) alone, N = 24; read-out: AUC0-∞ Mean (SD)

{"Cpd Smiles": "COc1cc2c(cc1OC)[C@H]1C[C@@H](OC(=O)[C@@H](N)C(C)C)[C@H](CC(C)C)CN1CC2", "Unit Annotation": "ng·h/mL", "AUC(0-inf)": 3470}

* * *

Test: Phase 1 open-label drug interaction study: effect of ketoconazole on the pharmacokinetics of NBI-98854 in healthy subjects
Format: in vivo, human
Conditions: both sexes, human, oral; analyte NBI-136110 in plasma; NBI-98854 (50 mg) alone, N = 24; read-out: AUC0-∞ Mean (SD)
Recorded Metric: AUC(0-inf) (ng·h/mL)

{"Cpd Smiles": "COc1cc2c(cc1OC)[C@H]1C[C@@H](OC(=O)[C@@H](N)C(C)(C)O)[C@H](CC(C)C)CN1CC2", "Measured": 1330}

* * *

Assay: Phase 1 open-label drug interaction study: effect of ketoconazole on the pharmacokinetics of NBI-98854 in healthy subjects
Assay type: in vivo, human
Settings: both sexes, human, oral; analyte NBI-98854 in plasma; NBI-98854 (80 mg) + Ketoconazole (200 mg), N = 24; read-out: AUC0-∞ Mean (SD)
Recorded Metric: AUC(0-inf)

{"Cpd Smiles": "COc1cc2c(cc1OC)[C@H]1C[C@@H](OC(=O)[C@@H](N)C(C)C)[C@H](CC(C)C)CN1CC2", "Measured": "7340 ng·h/mL"}

* * *

Assay: Phase 1 open-label drug interaction study: effect of ketoconazole on the pharmacokinetics of NBI-98854 in healthy subjects
Type: in vivo, human
Conditions: both sexes, human, oral; analyte NBI-136110 in plasma; NBI-98854 (50 mg) alone, N = 24; read-out: t1/2 Mean (SD) (converted)
Experimental: All subjects received the same treatment. […] Subjects were given meals upon completion of study assessments/dosing and at regular meal times during their stay in the research unit. […] Blood specimens to determine ketoconazole plasma concentrations were collected predose through Day 9. Safety and tolerability was assessed through Day 10. […] The tmax was analyzed using non-parametric methods. […] Safety data were summarized using descriptive statistics.

{"Molecule": "COc1cc2c(cc1OC)[C@H]1C[C@@H](OC(=O)[C@@H](N)C(C)(C)O)[C@H](CC(C)C)CN1CC2 [NBI-136110]", "half-life, h": 28}

* * *

Assay: Phase 1 open-label drug interaction study: effect of ketoconazole on the pharmacokinetics of NBI-98854 in healthy subjects
Type: in vivo, human
Settings: both sexes, human, plasma, oral, 50 mg, analyte NBI-136110 in plasma; NBI-98854 (50 mg) alone, N = 24; read-out: AUC0-tlast Mean (SD)

{"Cpd Smiles": "COc1cc2c(cc1OC)[C@H]1C[C@@H](OC(=O)[C@@H](N)C(C)(C)O)[C@H](CC(C)C)CN1CC2", "AUC(0-t) / ng·h/mL": 1210}

* * *

Experiment: Phase 1 open-label drug interaction study: effect of ketoconazole on the pharmacokinetics of NBI-98854 in healthy subjects
Type: in vivo, human
Conditions: both sexes, human, oral; analyte NBI-98854 in plasma; NBI-98854 (80 mg) + Ketoconazole (200 mg), N = 24; read-out: Cmax Mean (SD)

{"Molecule": "COc1cc2c(cc1OC)[C@H]1C[C@@H](OC(=O)[C@@H](N)C(C)C)[C@H](CC(C)C)CN1CC2 [NBI-98854]", "Cmax": "624 ng/mL"}
